Data credit: patent US20220081435A1

Reported % AR protein degradation in LNCaP Cells by item:
- study_system: AR protein (Homo sapiens, UniProt P10275, T878A)
- Construct: The percent AR protein degradation induced by these compounds at various concentrations in LNCaP cells; host or cells: LNCaP
- Sequence (P10275 1-920 T878A): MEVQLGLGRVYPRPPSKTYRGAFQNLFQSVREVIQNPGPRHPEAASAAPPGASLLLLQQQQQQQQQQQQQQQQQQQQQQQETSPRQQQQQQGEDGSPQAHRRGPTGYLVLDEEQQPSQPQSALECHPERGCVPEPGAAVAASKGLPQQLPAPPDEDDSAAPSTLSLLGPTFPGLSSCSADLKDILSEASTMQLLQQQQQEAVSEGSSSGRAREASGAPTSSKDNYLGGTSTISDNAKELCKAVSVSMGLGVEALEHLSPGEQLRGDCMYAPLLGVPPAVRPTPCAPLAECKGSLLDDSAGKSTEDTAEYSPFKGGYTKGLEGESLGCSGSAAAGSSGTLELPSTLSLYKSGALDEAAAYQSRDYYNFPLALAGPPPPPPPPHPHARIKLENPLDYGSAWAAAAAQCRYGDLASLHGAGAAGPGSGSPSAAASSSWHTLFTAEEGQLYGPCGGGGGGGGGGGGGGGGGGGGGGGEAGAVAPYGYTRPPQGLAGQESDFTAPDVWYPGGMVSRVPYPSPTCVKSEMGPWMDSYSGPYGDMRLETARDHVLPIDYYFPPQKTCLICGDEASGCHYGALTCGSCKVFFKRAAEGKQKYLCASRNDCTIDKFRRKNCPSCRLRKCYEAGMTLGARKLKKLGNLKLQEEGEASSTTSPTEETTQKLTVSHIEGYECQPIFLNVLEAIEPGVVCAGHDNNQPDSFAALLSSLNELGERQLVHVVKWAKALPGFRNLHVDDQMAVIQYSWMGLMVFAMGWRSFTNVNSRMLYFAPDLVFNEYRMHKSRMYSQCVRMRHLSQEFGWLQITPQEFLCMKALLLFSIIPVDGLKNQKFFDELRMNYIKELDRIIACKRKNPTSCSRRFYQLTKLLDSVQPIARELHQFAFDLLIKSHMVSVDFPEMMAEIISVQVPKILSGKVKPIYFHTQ
- test_name: AR protein degradation in LNCaP cells (Western blotting)
- Format: cell-based
- measurement_context: 1 μM, treatment time 6 h, average of three independent experiments

compound | measure_unit | % AR protein degradation in LNCaP Cells
Cc1ncsc1-c1ccc([C@H](C)NC(=O)C2C[C@@H](O)CN2C(=O)[C@@H](NC(=O)N2CCN(c3ccc(C#Cc4ccc(N5C(=S)N(c6ccc(C#N)c(C(F)(F)F)c6)C(=O)C5(C)C)cc4)cn3)CC2)C(C)(C)C)cc1 (some centres unmarked) | % | 12
Cc1cc([C@H](C(=O)N2C[C@H](O)C[C@H]2C(=O)N[C@@H](CC(=O)N2CCC(N3CCC(C#Cc4ccc(C(=O)N[C@H]5C(C)(C)[C@H](Oc6ccc(C#N)c(Cl)c6)C5(C)C)cc4)CC3)CC2)c2ccc(-c3scnc3C)cc2)C(C)C)on1 | % | 99
